Settings: in isobutanol, 278.15 K
measured.property: solubility (mole fraction)

CCc1cccc2c3c([nH]c12)C(CC)(CC(=O)O)OCC3 (stereo unspecified) | 0.0224

###

Conditions: in toluene, 278.15 K
measured.property: solubility (mole fraction)

CCc1cccc2c3c([nH]c12)C(CC)(CC(=O)O)OCC3 (stereo unspecified) | 0.00117

###

Conditions: in n-propanol, 293.15 K
measured.property: solubility (mole fraction)

CCc1cccc2c3c([nH]c12)C(CC)(CC(=O)O)OCC3 (stereo unspecified) | 0.0548

###

Conditions: in isobutanol, 308.15 K
measured.property: solubility (mole fraction)

CCc1cccc2c3c([nH]c12)C(CC)(CC(=O)O)OCC3 (stereo unspecified) | 0.0707

###

Conditions: in toluene, 283.15 K
measured.property: solubility (mole fraction)

CCc1cccc2c3c([nH]c12)C(CC)(CC(=O)O)OCC3 (stereo unspecified) | 0.00147

###

Conditions: in n-butanol, 308.15 K
measured.property: solubility (mole fraction)

CCc1cccc2c3c([nH]c12)C(CC)(CC(=O)O)OCC3 (stereo unspecified) | 0.0873

###

Details: in acetone, 298.15 K
measured.property: solubility (mole fraction)

CCc1cccc2c3c([nH]c12)C(CC)(CC(=O)O)OCC3 (stereo unspecified) | 0.127

###

Conditions: in methyl acetate, 278.15 K
measured.property: solubility (mole fraction)

CCc1cccc2c3c([nH]c12)C(CC)(CC(=O)O)OCC3 (stereo unspecified) | 0.0464

###

Settings: in dichloromethane, 288.15 K
measured.property: solubility (mole fraction)

CCc1cccc2c3c([nH]c12)C(CC)(CC(=O)O)OCC3 (stereo unspecified) | 0.0155
